# ASSAY SYSTEM: Sterol O-acyltransferase 1 (Homo sapiens)
# Sequence (P35610 whole entry): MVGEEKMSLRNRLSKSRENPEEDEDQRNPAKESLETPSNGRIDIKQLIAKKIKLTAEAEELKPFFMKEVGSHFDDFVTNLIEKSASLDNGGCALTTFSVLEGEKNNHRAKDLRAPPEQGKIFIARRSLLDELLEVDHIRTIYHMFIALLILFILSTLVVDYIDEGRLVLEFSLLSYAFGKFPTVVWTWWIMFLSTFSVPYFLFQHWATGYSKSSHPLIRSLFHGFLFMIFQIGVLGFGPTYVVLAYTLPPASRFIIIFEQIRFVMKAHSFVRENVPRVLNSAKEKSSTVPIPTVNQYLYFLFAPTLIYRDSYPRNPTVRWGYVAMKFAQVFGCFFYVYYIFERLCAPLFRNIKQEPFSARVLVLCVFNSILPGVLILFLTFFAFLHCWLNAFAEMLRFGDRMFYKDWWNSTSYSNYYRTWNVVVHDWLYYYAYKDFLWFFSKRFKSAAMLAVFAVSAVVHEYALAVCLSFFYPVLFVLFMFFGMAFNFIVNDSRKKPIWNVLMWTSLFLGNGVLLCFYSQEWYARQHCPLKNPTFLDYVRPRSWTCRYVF
# ASSAY SUMMARY: Inhibition of human SOAT1 mediated [14C]Cholesterol ester synthesis in CHO cells after 6 hrs in presence of [14C]Oleic acid by TLC analysis
# Assay type: cell-based
pIC50: −log10 of the molar value.
REPORTED ENDPOINT: pIC50

# COMPOUND, REPORTED ENDPOINT, VALUE MEASURED
records = [
    ("CC(=O)OCCC(/C=C/C=C/C#CC#C/C=C/CO)OC(=O)C=C(C)C (stereo unspecified)", "pIC50", 4.48),
]
